Values were extracted from paper PMC4336329.

Molecular target: human ether-à-go-go-related gene (hERG) potassium channel (human, UniProt Q12809);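 further: peak tail current of the secondary pulse compared with the same well before compound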
Sequence (Q12809 whole entry, looked up): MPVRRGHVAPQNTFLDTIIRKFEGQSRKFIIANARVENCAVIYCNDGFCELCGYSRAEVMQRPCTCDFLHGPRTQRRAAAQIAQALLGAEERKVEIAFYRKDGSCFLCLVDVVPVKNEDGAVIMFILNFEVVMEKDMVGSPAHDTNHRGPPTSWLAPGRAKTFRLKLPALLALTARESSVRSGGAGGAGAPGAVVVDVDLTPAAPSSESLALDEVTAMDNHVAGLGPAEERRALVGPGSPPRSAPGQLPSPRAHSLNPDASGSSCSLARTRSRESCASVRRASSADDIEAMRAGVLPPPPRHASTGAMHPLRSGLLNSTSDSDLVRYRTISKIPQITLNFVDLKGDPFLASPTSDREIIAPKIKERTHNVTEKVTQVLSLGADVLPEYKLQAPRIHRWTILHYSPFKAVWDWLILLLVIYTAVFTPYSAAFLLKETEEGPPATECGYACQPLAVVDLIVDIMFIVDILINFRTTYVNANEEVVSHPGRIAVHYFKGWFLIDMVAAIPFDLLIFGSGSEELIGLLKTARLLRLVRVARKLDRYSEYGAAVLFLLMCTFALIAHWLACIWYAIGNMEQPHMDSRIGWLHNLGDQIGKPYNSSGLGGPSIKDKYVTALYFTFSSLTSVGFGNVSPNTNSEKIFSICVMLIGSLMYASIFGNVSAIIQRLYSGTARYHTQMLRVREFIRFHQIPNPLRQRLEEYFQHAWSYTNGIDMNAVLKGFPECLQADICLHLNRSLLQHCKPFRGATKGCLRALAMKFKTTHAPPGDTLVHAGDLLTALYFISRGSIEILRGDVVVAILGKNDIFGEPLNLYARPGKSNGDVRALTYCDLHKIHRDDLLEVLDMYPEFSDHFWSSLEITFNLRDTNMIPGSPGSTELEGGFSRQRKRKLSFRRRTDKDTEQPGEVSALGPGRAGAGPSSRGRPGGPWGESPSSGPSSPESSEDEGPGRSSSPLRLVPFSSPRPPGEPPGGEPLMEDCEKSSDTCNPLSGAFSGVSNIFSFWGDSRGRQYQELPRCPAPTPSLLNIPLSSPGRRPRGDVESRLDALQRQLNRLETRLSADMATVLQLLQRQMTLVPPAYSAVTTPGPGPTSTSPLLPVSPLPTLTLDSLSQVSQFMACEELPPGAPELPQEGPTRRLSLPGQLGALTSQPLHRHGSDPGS
Assay: primary screen, population patch clamp on CHO cells stably expressing hERG; higher = less effect of the substance
Among all 310,000 compounds or so, about 14,000 (4.5%) showed an effect of 50% or more. The effect is printed as a negative number. The entries come from a sample that favours strong results as a whole.
Recorded measurements of hERG current change (%, negative = inhibition) at 10uM, one per entry
QUANTITY NAME: hERG current change (%, negative = inhibition) at 10uM (%)

INSERT INTO measurements (molecule, numeric_value) VALUES
  ('Cc1ccc(NC(=O)Nc2ccc([N+](=O)[O-])cc2)nc1', 9.85),
  ('CCN(CC(=O)Nc1c(F)cccc1F)C(=O)CSc1nc2ccccc2o1', -1.64),
  ('Cc1ccccc1OC1C(=O)N(CC2CCCO2)C1c1ccc2c(c1)OCO2 (stereo not drawn)', -55.8),
  ('CCCn1cc([C@@H]2C[C@H]3CN(Cc4cccc(Cl)c4)C(=O)[C@]34CCCN24)c(C)n1', -67.3),
  ('Cc1nn(C)cc1[C@@H]1C[C@H]2CN(Cc3cccc(Cl)c3)C(=O)[C@]23CCCN13', -36.8),
  ('CCn1cc([C@@H]2C[C@H]3CN(Cc4cccc(Cl)c4)C(=O)[C@]34CCCN24)c(C)n1', -41.7),
  ('CC(C)CN(C(=O)COC(=O)C(C)N1C(=O)c2ccccc2C1=O)c1c(N)n(Cc2ccccc2)c(=O)[nH]c1=O (stereo not drawn)', -7.78),
  ('Cn1cc([C@@H]2C[C@H]3CN(Cc4cccc(Cl)c4)C(=O)[C@]34CCCN24)c(-c2ccccc2)n1', -63.3),
  ('COc1ccc(CCN2C(=O)C(Oc3ccccc3C)C2c2ccc3c(c2)OCO3)cc1 (stereo not drawn)', -42.3);

---

Target: human ether-à-go-go-related gene (hERG) potassium channel (human);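 further: peak tail current of the secondary pulse compared with the same well before compound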
Experiment: primary screen, population patch clamp on CHO cells stably expressing hERG; higher = less effect of the substance
In all, about 310,000 compounds went through this assay and about 14,000 (4.5%) showed an effect of 50% or more. The effect is printed as a negative number. This excerpt belongs to a sample that is enriched for strong results.
QUANTITY NAME: hERG current change (%, negative = inhibition) at 10uM (%)

INSERT INTO assay_data (compound, numeric_value) VALUES
  ('Cc1cccc(NC(=S)N(CCCN2CCOCC2)Cc2ccccn2)c1', -22.3),
  ('CCN(CC(=O)NCc1ccc(Cl)cc1)C(=O)c1cc(S(=O)(=O)NCc2ccccc2)ccc1C', -25.6),
  ('CCOC(=O)c1cc(-c2ccc3c(c2)OCCO3)n[nH]1', 20.3),
  ('Cc1ccc(NC(=O)CSc2nnc(-c3cnccn3)n2C)cc1C', -5.78),
  ('COc1ccc(C(=O)Nc2nnc(S(=O)(=O)N(C)Cc3ccccc3)s2)cc1', 7.21),
  ('S=C(Nc1ccc(Oc2ccccc2)cc1)N(CCCN1CCOCC1)Cc1ccccn1', -70),
  ('CCc1ccc(NC(=S)N(CCCN2CCOCC2)Cc2ccccn2)cc1', -56.3),
  ('Cc1cc(C)cc(Oc2ccc(N)cc2)c1', -15.1),
  ('CCOC(=O)Nc1ccc2c(c1)N(C(=O)N(C)C)c1ccccc1CC2', -6.99),
  ('COc1ccc(C)cc1NC(=O)C(C)N1CCOCC1.Cl (stereo not drawn)', 9.06),
  ('CCOC(=O)c1c(NC(=S)Nc2ccccc2)sc2c1CCN(C)C2', -74.2),
  ('Cn1c(=O)cc(N2CCCCC2)[nH]c1=O', 9.92),
  ('COc1ccc(NC(=S)N(Cc2ccc(C)cc2)Cc2ccccn2)cc1', -50.5),
  ('CCOC(=O)c1c(NC(=S)Nc2ccccc2)sc2c1CCCCC2', 17.3),
  ('N#Cc1ccccc1NC(=O)CSC1=Nc2ccccc2C2CC=NN12 (stereo not drawn)', 1.95),
  ('CCc1ccc(NC(=S)NCC2CCCN2CC)cc1 (stereo not drawn)', -32.2),
  ('CCOC(=O)Nc1ccc2c(c1)N(C(=O)CCN(CC)CC)c1ccccc1CC2', -50.3),
  ('CC1(C)CC(=O)C2=C(C1)OC1=C(C(=O)CC(C)(C)C1)C2c1ccccc1', 16.9),
  ('COc1ccc(S(=O)(=O)NCC2CCCN(C(=O)c3ccccc3)C2)cc1 (stereo not drawn)', 8.3),
  ('CC(=O)N(c1ccccc1)C1SC(=O)N(c2ccccc2)C1=O (stereo not drawn)', 13.9),
  ('CCOC(=O)Nc1ccc2c(c1)N(C(=O)CCN(C)C)c1ccccc1CC2', -40.7),
  ('COc1ccc(NC(=S)N(CCCN2CCOCC2)Cc2ccccn2)cc1', -14.4),
  ('CC1CC(C)CN(S(=O)(=O)c2cccc3nsnc23)C1 (stereo not drawn)', 4.61),
  ('CNS(=O)(=O)c1ccc(Oc2ccc(S(=O)(=O)NC)cc2)cc1', 13.2),
  ('CCC(=O)Nc1nc(CC(=O)Nc2ccccc2)cs1', 18.2),
  ('NS(=O)(=O)c1ccc(Oc2ccc(S(N)(=O)=O)cc2)cc1', 0.75),
  ('COc1ccc(Nc2nc(N)c(C(=O)c3ccc(F)cc3)s2)cc1', 25.9),
  ('Cc1cc(C(=O)COC(=O)C(C)NC(N)=O)c(C)n1Cc1ccco1 (stereo not drawn)', 10.5),
  ('Cc1ccc(C(=O)OCC(=O)Nc2ccc3[nH]c(=O)[nH]c3c2)cc1S(=O)(=O)N1CCOCC1', 4.19),
  ('O=C(c1ccc2c(c1)ncn2C1CCCCCC1)N1CCC2(CC1)OCCO2', -2.37),
  ('O=C(CNC(=O)c1ccco1)OCC(=O)c1ccc([N+](=O)[O-])cc1', 11.9),
  ('CCOC(=O)Cc1c(C)nc2c(-c3ccccc3OC)c(C)nn2c1C', -22.7),
  ('COc1ccc(C(=O)NCCC2=CCCCC2)cc1', -9.79),
  ('CCOC(=O)Nc1ccc2c(c1)N(C(=O)C(C)N1CCCC1)c1ccccc1CC2.Cl (stereo not drawn)', -60.2),
  ('C[C@H](NC(=O)N1CCn2c1nc1ccccc12)C(=O)NCC1CCCO1 (stereo partly drawn)', 20.8),
  ('NNC(=O)c1ccc(Cn2cccn2)o1', 5.58),
  ('COc1ccccc1CC(=O)N(Cc1ccccc1)c1ccc(C)cc1', -16),
  ('O=C(O)Cc1cccc2ccccc12', 16.6),
  ('CC1CN(C(=O)c2ccc(CNS(=O)(=O)c3cccc(C(F)(F)F)c3)cc2)CC(C)O1 (stereo not drawn)', 9.72),
  ('Brc1ccc(-c2nn[nH]n2)cc1', 11.2),
  ('CCOC(=O)Nc1ccc2c(c1)N(C(=O)CN1CCN(C)CC1)c1ccccc1S2.Cl', -64.4),
  ('CC(CNC(=O)CCc1nnc2ccc(N3CCC4(CC3)OCCO4)nn12)c1ccccc1 (stereo not drawn)', -0.296);

---

Recorded measurements of hERG current change (%, negative = inhibition) at 10uM, one per entry
Molecular target: human ether-à-go-go-related gene (hERG) potassium channel (human, UniProt Q12809);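 further: peak tail current of the secondary pulse compared with the same well before compound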
Assay: primary screen, population patch clamp on CHO cells stably expressing hERG; higher = less effect of the substance
About 14,000 (4.5%) of roughly 310,000 compounds showed an effect of 50% or more. The effect is printed as a negative number. The list comes from a sample in which strong results are over-represented; it also holds close analogues and randomly drawn compounds.
QUANTITY NAME: hERG current change (%, negative = inhibition) at 10uM

INSERT INTO assay_data (compound, result) VALUES
  ('O=C(NC1CC2CCCC(C1)N2Cc1ccccc1)c1cccc(F)c1 (centres unmarked)', '-56.8%'),
  ('CCc1ccc(OCC(O)CN2CCN(c3ccccc3)CC2)cc1.Cl (centres unmarked)', '-60.3%'),
  ('CC(=O)OCCn1c(C)[n+](CCOC(C)=O)c2cc(Cl)c(Cl)cc21.[I-]', '14.7%'),
  ('CCc1cccc(NC(=O)CCc2c(C)nn(-c3ccc(N4CCCCC4)nn3)c2C)c1', '-19%'),
  ('Cc1cccc(NC(=O)CCc2c(C)nn(-c3ccc(N4CCOCC4)nn3)c2C)c1', '3.98%'),
  ('CCc1ccc(OCC(O)CN2CCN(c3ccc(OC)cc3)CC2)cc1.Cl (centres unmarked)', '-49.3%'),
  ('CCOc1ccc(S(=O)(=O)N2CCN(CN3C(=O)CC4(CCCC4)C3=O)CC2)cc1', '-8.79%'),
  ('O=C(c1cnn2c(C(F)(F)F)cc(-c3ccc(F)cc3)nc12)N1CCc2ccccc2C1', '-3.83%'),
  ('Cc1ccc(C(=O)NCCc2nnc3ccc(SCC(=O)Nc4ccccc4F)nn23)cc1', '-12.7%'),
  ('COc1ccc(/C=C2\CCn3c2nc2cc(C(=O)O)ccc2c3=O)cc1', '9.07%'),
  ('Cc1ccc(C)c(OCCCC(=O)Nc2nccs2)c1', '12.9%'),
  ('CCOC(=O)c1[nH]c(C)c(C(=O)N2CCN(c3cccc(Cl)c3)CC2)c1C', '-13.8%'),
  ('CC(C)CCNC(=O)CCCc1ccccc1', '14.5%'),
  ('CCCc1ccc(OCC(O)CN2CCN(c3ccccc3)CC2)cc1.Cl (centres unmarked)', '-46.5%'),
  ('COc1ccc(C2=NC(C)(C)Cc3cc(OC)c(OC)cc32)cc1', '-44%'),
  ('CN1C(C(=O)N2CCc3ccccc3C2)=CC(c2ccc(F)cc2)=NS1(=O)=O', '-3.37%'),
  ('CCc1ccc(OCC(O)CN2CCN(CCO)CC2)cc1.Cl (centres unmarked)', '-15.3%'),
  ('CCc1cccc(NC(=O)CCc2c(C)nn(-c3ccc(N4CCOCC4)nn3)c2C)c1', '-51.4%'),
  ('CCC(CC)C(=O)N1CC(=O)Nc2ccc(F)cc2C1c1ccc(F)cc1 (centres unmarked)', '-27.8%'),
  ('CN(C(=O)CCS(=O)(=O)c1ccc2c(c1)oc(=O)n2C)C1CCCCC1', '3.68%');
